# system-under-test: PRMT5 (Homo sapiens)
# Construct: purchased Viva (custom protein)
# Sequence (O14744 whole entry): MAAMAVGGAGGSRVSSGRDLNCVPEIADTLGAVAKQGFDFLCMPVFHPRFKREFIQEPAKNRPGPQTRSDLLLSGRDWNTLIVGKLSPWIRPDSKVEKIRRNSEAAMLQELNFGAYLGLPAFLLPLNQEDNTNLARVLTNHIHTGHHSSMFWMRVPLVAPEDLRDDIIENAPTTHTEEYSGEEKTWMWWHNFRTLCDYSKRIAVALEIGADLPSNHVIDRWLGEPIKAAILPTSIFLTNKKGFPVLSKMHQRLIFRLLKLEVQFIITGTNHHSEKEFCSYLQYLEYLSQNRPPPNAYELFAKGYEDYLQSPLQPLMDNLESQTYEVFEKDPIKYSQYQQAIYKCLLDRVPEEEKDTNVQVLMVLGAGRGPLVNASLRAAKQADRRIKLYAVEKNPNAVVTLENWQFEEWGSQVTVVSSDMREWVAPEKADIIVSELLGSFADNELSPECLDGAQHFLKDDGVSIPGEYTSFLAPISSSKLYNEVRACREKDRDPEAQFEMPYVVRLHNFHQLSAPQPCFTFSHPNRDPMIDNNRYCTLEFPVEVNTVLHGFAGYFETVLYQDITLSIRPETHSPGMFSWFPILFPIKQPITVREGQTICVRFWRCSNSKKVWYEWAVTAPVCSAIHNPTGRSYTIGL
# Sequence (Q9BQA1 whole entry partner): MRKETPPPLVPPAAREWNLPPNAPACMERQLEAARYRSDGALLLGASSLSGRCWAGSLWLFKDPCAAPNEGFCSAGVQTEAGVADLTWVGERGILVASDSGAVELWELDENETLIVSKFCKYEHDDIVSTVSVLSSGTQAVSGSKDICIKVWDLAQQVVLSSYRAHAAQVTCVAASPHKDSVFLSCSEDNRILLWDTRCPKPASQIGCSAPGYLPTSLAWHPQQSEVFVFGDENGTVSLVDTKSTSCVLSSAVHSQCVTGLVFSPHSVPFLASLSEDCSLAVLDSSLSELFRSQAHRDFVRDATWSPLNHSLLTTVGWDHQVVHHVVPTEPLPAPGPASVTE
# assay-comment: PRMT5 biochemical IC50 assay with SAM as cofactor
# test-settings: PRMT5, SAM as cofactor; read-out: SAM IC50
I'd appreciate it if you could supply IC50 values for the items below.

The compound listed as C[C@H]1CC[C@H](c2cccc3[nH]ncc23)N(C(=O)C(=O)Nc2cncc(C(N)=O)c2)C1 (single isomer, unassigned) shows IC50 equal to 50 to 500 nM

The compound listed as C[C@@H]1CC[C@@H](c2ccc(Cl)c(Cl)c2)N(C(=O)C(=O)Nc2cncc(C(N)=O)c2)C1 (racemic) [Compound 243] shows IC50 equal to 50 to 500 nM

The compound listed as C[C@@H]1CC[C@@H](c2cccc(Cl)c2)N(C(=O)C(=O)Nc2cncc(C(N)=O)c2)C1 (racemic) [Compound 174] shows IC50 equal to 50 to 500 nM

The compound listed as Cc1ccc([C@H]2CC[C@H](C)CN2C(=O)C(=O)Nc2cncc(C)c2)cc1 (single isomer, unassigned) shows IC50 equal to > 500 nM

The compound listed as Cc1cc(NC(=O)C(=O)N2C[C@@H](C)CC[C@@H]2c2ccc3c(c2)C(=O)NC3)cnc1N (single isomer, unassigned) shows IC50 equal to 50 to 500 nM

The compound listed as Cc1cc(NC(=O)C(=O)N2C[C@H](C)CC[C@H]2c2ccc(-c3ccn[nH]3)cc2)cnc1N (single isomer, unassigned) [Compound 675] shows IC50 equal to > 500 nM

Provenance of the data: patent US11999727B2
